assay-method-text: Rat PK after oral and IV administration
Type: in vivo
conditions-used: male, Han Wistar, plasma, oral, 3 mg/kg, glucose 5%
measured-endpoint: Tmax (min)

smiles-entry | result-unit | val
COCc1ccc(NC(=O)c2c(C#CCN3CCOCC3)n(C3(C)CC3)c3ncnc(N)c23)cc1 | min | 30

----------
assay-method-text: Rat PK after oral and IV administration
Format: in vivo
conditions-used: male, Han Wistar, plasma, oral, dose range 3 to 50 mg/kg

smiles-entry | bioavailability
COCc1ccc(NC(=O)c2c(C#CCN3CCOCC3)n(C3(C)CC3)c3ncnc(N)c23)cc1 | 46 to 51%

----------
assay-method-text: 4-week GLP toxicity study in rat
Format: in vivo
conditions-used: female, rat, in vivo, po, 50 mg/kg, 50 mg/kg BID, Day 28, females
measured-endpoint: AUC(0-t) (µg·h/mL)

smiles-entry | result-unit | val
COCc1ccc(NC(=O)c2c(C#CCN3CCOCC3)n(C3(C)CC3)c3ncnc(N)c23)cc1 | µg·h/mL | 74.3

----------
assay-method-text: Rat PK after oral and IV administration
Format: in vivo
conditions-used: Han Wistar, plasma, oral, 30 mg/kg, glucose 5%

smiles-entry | result-unit | half-life
COCc1ccc(NC(=O)c2c(C#CCN3CCOCC3)n(C3(C)CC3)c3ncnc(N)c23)cc1 | h | 2.8

----------
assay-method-text: Rat PK after oral and IV administration
Format: in vivo
conditions-used: male, Han Wistar, plasma, oral, 3 mg/kg, glucose 5%

smiles-entry | result-unit | Cmax
COCc1ccc(NC(=O)c2c(C#CCN3CCOCC3)n(C3(C)CC3)c3ncnc(N)c23)cc1 | µM | 1.08

----------
study-target: KDR (Homo sapiens)
Sequence (P35968 20-1356): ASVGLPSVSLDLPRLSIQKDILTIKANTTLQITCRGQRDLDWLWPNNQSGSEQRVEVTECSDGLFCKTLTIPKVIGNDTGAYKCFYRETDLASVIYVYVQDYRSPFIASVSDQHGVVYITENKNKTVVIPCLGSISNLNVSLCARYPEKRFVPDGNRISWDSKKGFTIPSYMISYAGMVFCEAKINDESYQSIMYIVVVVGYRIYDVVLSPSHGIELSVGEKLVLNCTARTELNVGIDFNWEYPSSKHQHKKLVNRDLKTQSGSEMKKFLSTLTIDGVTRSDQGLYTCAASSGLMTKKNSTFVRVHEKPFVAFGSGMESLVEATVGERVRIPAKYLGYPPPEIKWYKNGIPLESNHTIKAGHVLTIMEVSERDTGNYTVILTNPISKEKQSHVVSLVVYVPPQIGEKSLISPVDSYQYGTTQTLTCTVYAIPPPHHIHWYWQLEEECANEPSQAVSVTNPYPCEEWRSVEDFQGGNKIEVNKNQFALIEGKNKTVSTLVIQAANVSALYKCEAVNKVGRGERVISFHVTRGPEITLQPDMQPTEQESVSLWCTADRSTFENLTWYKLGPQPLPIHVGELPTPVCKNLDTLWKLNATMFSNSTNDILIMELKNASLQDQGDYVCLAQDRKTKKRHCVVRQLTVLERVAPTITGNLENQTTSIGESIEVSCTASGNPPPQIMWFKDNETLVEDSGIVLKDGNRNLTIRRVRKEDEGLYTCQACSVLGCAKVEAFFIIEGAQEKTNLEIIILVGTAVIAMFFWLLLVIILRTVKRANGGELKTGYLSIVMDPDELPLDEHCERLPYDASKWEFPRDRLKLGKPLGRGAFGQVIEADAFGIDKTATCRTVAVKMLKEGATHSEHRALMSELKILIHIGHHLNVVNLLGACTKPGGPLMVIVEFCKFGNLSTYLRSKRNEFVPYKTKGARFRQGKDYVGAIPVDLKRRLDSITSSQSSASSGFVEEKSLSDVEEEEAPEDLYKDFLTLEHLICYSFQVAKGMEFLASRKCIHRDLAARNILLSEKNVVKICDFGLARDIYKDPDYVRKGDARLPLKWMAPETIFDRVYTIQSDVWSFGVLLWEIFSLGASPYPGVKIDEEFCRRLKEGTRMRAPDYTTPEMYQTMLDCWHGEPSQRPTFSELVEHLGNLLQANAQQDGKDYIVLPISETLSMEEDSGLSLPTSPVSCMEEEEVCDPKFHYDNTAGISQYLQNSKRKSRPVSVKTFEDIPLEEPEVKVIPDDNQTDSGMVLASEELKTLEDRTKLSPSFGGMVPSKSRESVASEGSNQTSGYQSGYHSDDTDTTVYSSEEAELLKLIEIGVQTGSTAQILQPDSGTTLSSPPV
pIC50: −log10 of the molar value.
measured-endpoint: pIC50

smiles-entry | val
COCc1ccc(NC(=O)c2c(C#CCN3CCOCC3)n(C3(C)CC3)c3ncnc(N)c23)cc1 | 6.76

----------
study-target: UniProt Q16832
Sequence (Q16832 22-855): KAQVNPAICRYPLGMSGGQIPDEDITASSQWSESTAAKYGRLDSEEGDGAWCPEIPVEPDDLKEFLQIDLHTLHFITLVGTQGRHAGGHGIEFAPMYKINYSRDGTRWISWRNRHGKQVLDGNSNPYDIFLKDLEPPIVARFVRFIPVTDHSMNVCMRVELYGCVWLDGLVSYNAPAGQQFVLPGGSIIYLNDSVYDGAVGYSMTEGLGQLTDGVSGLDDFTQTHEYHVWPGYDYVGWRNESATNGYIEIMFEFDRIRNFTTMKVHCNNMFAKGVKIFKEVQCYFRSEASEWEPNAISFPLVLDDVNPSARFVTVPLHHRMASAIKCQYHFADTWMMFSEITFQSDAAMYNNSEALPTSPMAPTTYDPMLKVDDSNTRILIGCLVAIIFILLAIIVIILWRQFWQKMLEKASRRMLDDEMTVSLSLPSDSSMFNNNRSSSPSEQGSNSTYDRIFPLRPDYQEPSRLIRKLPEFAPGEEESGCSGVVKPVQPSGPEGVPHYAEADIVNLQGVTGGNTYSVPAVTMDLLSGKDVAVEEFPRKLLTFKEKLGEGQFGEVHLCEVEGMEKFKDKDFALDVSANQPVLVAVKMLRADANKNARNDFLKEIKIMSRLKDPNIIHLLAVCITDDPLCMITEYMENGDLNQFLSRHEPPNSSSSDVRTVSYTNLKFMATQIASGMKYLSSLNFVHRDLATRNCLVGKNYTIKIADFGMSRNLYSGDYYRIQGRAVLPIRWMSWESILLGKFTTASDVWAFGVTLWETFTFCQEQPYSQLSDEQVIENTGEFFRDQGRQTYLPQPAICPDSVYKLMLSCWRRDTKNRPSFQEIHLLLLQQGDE
assay-method-text: Kinase inhibition
Assay type: biochemical
conditions-used: read-out: IC50 kinase inhibition, DDR2
Each item that follows carries a reported IC50.

compound | IC50
CO[C@]1(C(=O)N[C@@H](C)c2ccc(-n3cc(F)cn3)nc2)CC[C@H](c2nc(C)cc(Nc3cc(C)[nH]n3)n2)CC1 [BLU-667, pralsetinib] | 0.0077 µM
COc1ccc(CN2C3CC2CN(c2ccc(-c4cc(OCC(C)(C)O)cn5ncc(C#N)c45)cn2)C3)cn1 [LOXO-292, selpercatinib] | 0.417 µM

----------
assay-method-text: 4-week GLP toxicity study in rat
Format: in vivo
conditions-used: rat, in vivo, po; after the second daily dose, when estimable

smiles-entry | half-life
COCc1ccc(NC(=O)c2c(C#CCN3CCOCC3)n(C3(C)CC3)c3ncnc(N)c23)cc1 | 2.03 to 3.67 h

----------
study-target: JAK2 (Homo sapiens, UniProt O60674)
Sequence (O60674 whole entry): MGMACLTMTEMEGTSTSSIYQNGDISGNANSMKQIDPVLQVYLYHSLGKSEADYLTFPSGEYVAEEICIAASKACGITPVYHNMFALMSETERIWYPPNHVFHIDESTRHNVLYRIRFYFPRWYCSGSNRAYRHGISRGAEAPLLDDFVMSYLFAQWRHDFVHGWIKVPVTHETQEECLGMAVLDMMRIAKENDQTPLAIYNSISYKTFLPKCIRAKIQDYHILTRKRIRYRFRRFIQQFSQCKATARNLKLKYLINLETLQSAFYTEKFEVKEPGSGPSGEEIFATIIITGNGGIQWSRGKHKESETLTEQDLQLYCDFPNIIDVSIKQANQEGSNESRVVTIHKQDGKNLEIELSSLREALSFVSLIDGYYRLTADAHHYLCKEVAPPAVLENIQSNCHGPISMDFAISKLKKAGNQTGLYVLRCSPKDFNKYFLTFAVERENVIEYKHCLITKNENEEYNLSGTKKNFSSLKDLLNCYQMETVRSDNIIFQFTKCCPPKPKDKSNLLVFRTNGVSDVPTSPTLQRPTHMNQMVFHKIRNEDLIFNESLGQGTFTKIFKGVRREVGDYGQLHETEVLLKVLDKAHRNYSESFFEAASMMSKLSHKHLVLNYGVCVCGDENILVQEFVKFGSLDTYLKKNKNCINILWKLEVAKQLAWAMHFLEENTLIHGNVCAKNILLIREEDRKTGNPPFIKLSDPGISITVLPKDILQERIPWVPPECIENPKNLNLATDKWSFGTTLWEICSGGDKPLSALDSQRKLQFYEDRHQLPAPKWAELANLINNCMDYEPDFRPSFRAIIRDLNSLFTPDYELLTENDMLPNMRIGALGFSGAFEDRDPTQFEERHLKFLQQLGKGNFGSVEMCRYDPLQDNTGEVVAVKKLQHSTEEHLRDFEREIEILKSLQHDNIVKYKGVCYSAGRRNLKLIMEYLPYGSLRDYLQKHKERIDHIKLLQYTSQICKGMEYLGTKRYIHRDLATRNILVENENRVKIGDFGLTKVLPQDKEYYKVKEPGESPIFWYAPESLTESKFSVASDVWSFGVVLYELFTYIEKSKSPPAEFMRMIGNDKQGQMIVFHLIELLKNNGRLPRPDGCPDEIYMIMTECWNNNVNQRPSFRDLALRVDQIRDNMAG
assay-method-text: Kinase inhibition
Assay type: biochemical
measured-endpoint: IC50

compound | study-target | val
COCc1ccc(NC(=O)c2c(C#CCN3CCOCC3)n(C3(C)CC3)c3ncnc(N)c23)cc1 [HM06/TAS0953] | JAK2 (Homo sapiens, UniProt O60674) | > 3 µM

----------
assay-method-text: Rat PK after oral and IV administration
Format: in vivo
conditions-used: male, Han Wistar, plasma, oral, dose range 3 to 50 mg/kg

smiles-entry | Tmax
COCc1ccc(NC(=O)c2c(C#CCN3CCOCC3)n(C3(C)CC3)c3ncnc(N)c23)cc1 | 30 to 60 min
